# Target or system: HCMV polymerase (Human cytomegalovirus)
# Construct: made in house; host or cells: SF-9 insect cells infected with recombinant baculovirus
# Sequence (P08546 whole entry): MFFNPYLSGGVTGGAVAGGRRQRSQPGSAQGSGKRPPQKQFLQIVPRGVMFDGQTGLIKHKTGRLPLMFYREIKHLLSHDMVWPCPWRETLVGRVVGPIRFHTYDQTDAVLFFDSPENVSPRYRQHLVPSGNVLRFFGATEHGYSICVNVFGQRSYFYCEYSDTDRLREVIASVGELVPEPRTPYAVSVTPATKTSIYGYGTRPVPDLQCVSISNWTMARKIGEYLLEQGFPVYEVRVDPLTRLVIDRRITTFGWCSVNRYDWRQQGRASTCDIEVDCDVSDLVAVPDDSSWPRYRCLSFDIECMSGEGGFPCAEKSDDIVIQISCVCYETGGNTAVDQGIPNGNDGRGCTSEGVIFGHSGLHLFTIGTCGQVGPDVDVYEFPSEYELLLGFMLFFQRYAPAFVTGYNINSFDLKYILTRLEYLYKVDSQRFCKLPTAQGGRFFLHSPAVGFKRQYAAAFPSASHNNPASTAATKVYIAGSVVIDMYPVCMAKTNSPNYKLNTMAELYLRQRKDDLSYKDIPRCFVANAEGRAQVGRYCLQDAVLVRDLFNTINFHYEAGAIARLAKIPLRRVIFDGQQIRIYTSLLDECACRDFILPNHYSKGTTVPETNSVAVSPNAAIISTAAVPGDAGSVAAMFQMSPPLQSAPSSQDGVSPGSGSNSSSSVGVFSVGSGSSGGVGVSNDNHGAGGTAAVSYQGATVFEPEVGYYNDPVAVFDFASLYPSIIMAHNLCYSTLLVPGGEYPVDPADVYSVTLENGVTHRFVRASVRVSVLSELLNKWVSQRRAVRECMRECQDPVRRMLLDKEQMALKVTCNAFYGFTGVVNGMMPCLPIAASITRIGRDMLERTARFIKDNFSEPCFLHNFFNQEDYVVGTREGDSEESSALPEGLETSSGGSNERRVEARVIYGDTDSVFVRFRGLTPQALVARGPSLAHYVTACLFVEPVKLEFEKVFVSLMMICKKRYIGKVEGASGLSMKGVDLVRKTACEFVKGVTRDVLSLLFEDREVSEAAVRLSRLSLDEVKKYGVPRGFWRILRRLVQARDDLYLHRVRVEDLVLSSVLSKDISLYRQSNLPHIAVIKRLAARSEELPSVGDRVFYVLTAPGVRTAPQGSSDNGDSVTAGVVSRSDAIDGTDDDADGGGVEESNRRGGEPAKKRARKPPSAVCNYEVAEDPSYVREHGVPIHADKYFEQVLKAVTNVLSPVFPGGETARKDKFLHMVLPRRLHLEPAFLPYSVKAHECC
# Method: HCMV polymerase assay (scintillation proximity assay)
# Format: biochemical
# Recorded conditions: percentage of inhibition at 25 μM concentration in CMV polymerase assay
Quantity measured: inhibition at 25 µM (%)

Form: compound = O=C(Nc1nnc(NCc2cccnc2)s1)c1ccc(Cl)c(Cl)c1 [compound 417] ; inhibition at 25 µM = 24.4

1. CCCCCCCC/C=C/CCCCCCCC(=O)Nc1nnc(NCc2cccnc2)s1 [compound 72]
2. CC(C)(C)OC(=O)CCNc1nnc(NC(=O)c2c(Cl)cccc2Cl)s1 [compound 338]
inhibition at 25 µM comparison. Which is larger, 1 or 2 ? Identify your pick by its label.
1

a. CCCCCCCCCCCNc1nnc(NC(=O)c2c(OCC)ccc3ccccc23)s1 [compound 145]
b. O=C(Nc1nnc(NCCCN2CCCC2=O)s1)c1ccc([N+](=O)[O-])o1 [compound 296]
Of the pair a and b , name the member with the lesser recorded inhibition at 25 µM. Identify your pick by its label.
b

I. O=C(Nc1nnc(NCCCN2CCCC2=O)s1)c1ccc2c(c1)C(=O)OC2=O [compound 184]
II. CCOc1ccc2ccccc2c1C(=O)Nc1nnc(NCCC(c2ccccc2)c2ccccc2)s1 [compound 61]
III. O=C(/C=C/c1ccccc1)Nc1nnc(NCc2cccnc2)s1 [compound 421]
Please list these in order of increasing inhibition at 25 µM. Thank you! Kindly provide the labels arranged according to the requested ordering.
III, I, II

I. O=C(/C=C/c1ccccc1Cl)Nc1nnc(NCc2cccs2)s1 [compound 164]
II. O=C(Nc1nnc(NCc2ccc(F)cc2)s1)c1ccc(F)cc1F [compound 423]
Of the pair I and II , name the member with the lesser recorded inhibition at 25 µM. Identify your pick by its label.
II

a. CCOc1ccc2ccccc2c1C(=O)Nc1nnc(NCc2ccco2)s1 [compound 213]
b. O=C(Nc1nnc(NCCCCc2ccccc2)s1)c1cccc([N+](=O)[O-])c1 [compound 413]
Of the pair a and b , name the member with the lesser recorded inhibition at 25 µM. Identify your pick by its label.
b

P. O=C(Nc1nnc(NCCC(c2ccccc2)c2ccccc2)s1)c1cc2ccccc2s1 [compound 277]
Q. O=C(Nc1nnc(NCCc2c[nH]c3ccccc23)s1)c1ccc2c(c1)C(=O)OC2=O [compound 10]
R. CCOc1ccc2ccccc2c1C(=O)Nc1nnc(NCC2CCCCC2)s1 [compound 431]
Arrange by inhibition at 25 µM, high to low. Kindly provide the labels arranged according to the requested ordering.
Q, P, R

1. O=C(Nc1nnc(NC2CCCc3ccccc32)s1)c1cc2ccccc2s1 (stereo not drawn) [compound 343]
2. O=C(Nc1nnc(NC2CCCCCC2)s1)c1cccc([N+](=O)[O-])c1 [compound 201]
inhibition at 25 µM comparison. Which is larger, 1 or 2 ? Identify your pick by its label.
2
(2: 45.3%, 1: 31.2%)

Values were extracted from patent US6150385A.
